Attribution: the supplement of paper PMC9170038

Test system: MS2 coat protein
METHOD_DESCRIPTION: apparent KD of MS2 coat protein; higher = weaker reporter binding
ASSAY_SETUP: Eterna round: R107; input ligand: theophylline 20 uM
ENDPOINT: apparent KD of MS2 coat protein (nM)
Could you give me the number in nM? Just the number is fine.

Some sequences with known apparent KD of MS2 coat protein results, for comparison:
{"RESIDUES": "UAUACAUGGGAUACCAUGGAUCCGAGUGAUACCAGCUAUCCGAAUAGCCCUUGGCAGCACAGUACAUGAGGAUCACCCAUGUAUA [Theo A SS t5]", "SCALE_UNIT": "nM", "apparent KD of MS2 coat protein": 30.2}
{"RESIDUES": "AGGACAUCGAGAAGGAGCGCAUCCAAACCACACAUGAGGAUCACCCAUGUAUAAAUAUGCAUGCAGGUAGGUCGCUCGGCGUCUU [Leanerin]", "SCALE_UNIT": "nM", "apparent KD of MS2 coat protein": 121}
{"RESIDUES": "UCUUUCUAUUGUGAUACCAGACGUACAUGAGGAUCACCCAUGUUUCAUUCUUGUUUUAAAGUCCCUUGGCAGCACUAUUUGUUCG [JR_Nu_ExcTheophyB_Sub028]", "SCALE_UNIT": "nM", "apparent KD of MS2 coat protein": 23.9}

For the next question, use this sequence.
Exercise: Fill in apparent KD of MS2 coat protein for record AACAUGGGAUUAAAAUAAAUAAUAACUGAUACCAGACUAUAUAAUGUCCCUUGGCAGCAGAUACAUGAGGAUCACCCAUGUAUUA [JR_Nu_ExcTheophyA_Sub023]
Key: 14.9
